Molecular target: C1r from human plasma, activated, two-chain form (Homo sapiens)
Sequence (P00736 18-463 partner limits assumed): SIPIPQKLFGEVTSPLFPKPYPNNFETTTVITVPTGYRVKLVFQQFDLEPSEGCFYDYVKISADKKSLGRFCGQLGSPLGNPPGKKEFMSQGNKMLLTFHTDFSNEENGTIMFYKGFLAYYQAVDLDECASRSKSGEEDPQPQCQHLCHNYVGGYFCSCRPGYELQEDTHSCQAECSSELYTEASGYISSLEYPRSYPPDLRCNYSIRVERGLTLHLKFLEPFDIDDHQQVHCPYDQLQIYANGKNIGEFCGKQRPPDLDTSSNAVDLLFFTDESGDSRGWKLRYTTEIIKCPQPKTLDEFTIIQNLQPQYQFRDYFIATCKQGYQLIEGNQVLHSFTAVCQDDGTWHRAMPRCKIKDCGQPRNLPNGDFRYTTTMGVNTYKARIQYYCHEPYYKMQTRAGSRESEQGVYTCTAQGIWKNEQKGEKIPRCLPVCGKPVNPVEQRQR
Sequence (P00736 464-705 limits assumed): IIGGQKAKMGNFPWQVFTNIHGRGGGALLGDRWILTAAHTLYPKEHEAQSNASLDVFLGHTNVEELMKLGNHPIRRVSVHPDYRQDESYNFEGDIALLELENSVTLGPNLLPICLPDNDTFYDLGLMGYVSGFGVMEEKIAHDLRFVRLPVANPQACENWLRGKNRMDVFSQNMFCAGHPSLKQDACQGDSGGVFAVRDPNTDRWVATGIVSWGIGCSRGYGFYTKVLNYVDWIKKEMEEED
Assay: Color substrate test for C1r inhibition (Example A)
Settings: amidolytic C1r activity, substrate Cbz-Gly-Arg-S-Bzl; read-out: C1R IC50 according to Example A
Please respond with reported IC50 for every item in the list.
Give bare numbers, in µM.

| compound | target system | IC50 [µM] |
| --- | --- | --- |
| N=C(N)c1ccc(CNC(=O)[C@@H]2C=CCN2C(=O)[C@H](NCC(=O)O)C2CCCCC2)cn1 [Example 18] | C1r from human plasma, activated, two-chain form (Homo sapiens) | 10 |
| N=C(N)c1csc(CNC(=O)[C@@H]2CC3CCCCC3N2C(=O)[C@@H](CC2CCCCC2)NCC(=O)O)c1 (stereo partly shown) [Example 47] | C1r from human plasma, activated, two-chain form (Homo sapiens) | 10 |
| N=C(N)c1coc(CNC(=O)[C@@H]2CCCN2C(=O)[C@@H](CC2CCCCC2)NCC(=O)O)c1 [Example 34] | C1r from human plasma, activated, two-chain form (Homo sapiens) | 70 |

Turning now to a further record.
Q: Fill in: IC50 of N=C(N)c1coc(CNC(=O)[C@@H]2C=CCN2C(=O)[C@@H](CC2CCCCC2)NCC(=O)O)c1 [Example 44] is ___
A: 40
